Entry source: patent US11021533

Quick list: log10 EC50 per entry.
MEASURED_TARGET: ZIKV E protein ectodomain (UniProt A0A024B7W1 291-745)
Sequence (A0A024B7W1 291-745): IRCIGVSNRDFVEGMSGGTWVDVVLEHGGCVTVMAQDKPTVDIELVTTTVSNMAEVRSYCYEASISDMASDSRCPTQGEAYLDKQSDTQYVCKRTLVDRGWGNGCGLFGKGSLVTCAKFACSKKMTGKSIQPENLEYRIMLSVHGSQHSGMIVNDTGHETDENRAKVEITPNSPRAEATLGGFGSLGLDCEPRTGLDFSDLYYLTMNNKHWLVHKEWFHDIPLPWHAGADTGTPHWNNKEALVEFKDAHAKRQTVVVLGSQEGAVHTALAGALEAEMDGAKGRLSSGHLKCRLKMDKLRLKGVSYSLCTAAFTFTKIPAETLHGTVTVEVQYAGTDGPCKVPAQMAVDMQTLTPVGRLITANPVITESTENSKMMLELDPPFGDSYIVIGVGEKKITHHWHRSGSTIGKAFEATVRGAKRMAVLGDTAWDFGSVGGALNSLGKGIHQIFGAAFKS
METHOD_NOTES: ELISA
READOUT: log10 EC50 (log10 of the value in mg/L)

BINDER	log10 EC50
ZIKV-19 (antibody, V domains shown) VH: QVQLVQSGPEVKKPGSSVKVSCKASGVSFNTYEISWVRQAPGQGLEWMGRIIPIFATPTYALKFQGRVTITTDESTTTGYMELSSLRSEDTAVYYCAGRPYGPGSWLPLDVWGQGTLVTVSS VL: DIVMTQSPSSLSASVGDRVTITCRASQGISSYLAWYQQKPGKLPKLLIYAASTLQSGVPSRFSGSGSGTDFTLTISSLQPEDVAAYYCQKYDSAPFTFGPGTKVDLK	-0.78
ZIKV-204 (antibody, V domains shown) VH: QVTLRESGPALLKPTQTLTLTCTFSGFSLSTNETCVSWIRQPPGKALEWLALIDWDDDQYSSTSLAARLTVSKDTSKNQVVLTMTNVAPVDTATYYCALTRPTLTAQNGDKYYNYYYGMDVWGQGTLVTVSS VL: EIVLTQSPGTLSLSPGERATLSCRASQSVSSMYLAWYQQKRGQPPRLLIYGTFNRATGIPDRFSGSGSGTDFTLTISRLEPEDFAVYYCQQYGSSSFTFGGGTKVEIK	-1.32
ZIKV-190 (antibody, V domains shown) VH: EVQLVESGGGLIQPGGSLRLSCAASGFTFSSYAMSWVRQAPGKGLEWVSAISGSGGSTYYADSVKGRFTISRDNSKNTLSLQMNSLRAEDTAVYYCARAFYYDFWTFDYWGQGTLVTVSS VL: QSALTQPRSVSGSPGQSVTISCTGTSSDVGGYNYVSWYQQHPGKAPKLMIYAVTKRPSGVPDRFSGSKSGNTASLTISGLQAEDEADYYCCSYAGSYTYVVFGGGTKLTVL	-1.09
ZIKV-195 (antibody, V domains shown) VH: QVQVVESGGGVVQPGRSLRLSCAASGFTFSSSAMHWVRQAPGKGLEWVAVISYDGSNKYYGDSVKGRFTISRDNSKNTLYLQMHSLRAEDTAVYYCAKDRDAYNTVGYFAYYYGMDVWGQGTLVTVSS VL: QSVLTQPPSVSEAPRQRVTISCSGSSSNIGNNAVNWYQQLPGKAPKLLIYYDDLLPSGVSDRFSGSKSGTSASLAISGLQSEDEADYYCAAWDDSLTRYVFGTGTKVTVL	-0.16
ZIKV-88 (antibody, V domains shown) VH: QVQLLESGGGVVQPGRSLRLSCVASGLTFSTSAMHWVRQAPGKGLEWVAVISYDGSYKFYADSVRDQFTISRDNSKTTLYLQMDGLTPEDTAVYYCARGYNDDSSGSYWYFDLWGRGTLVTVSS VL: QSVLTQPPSVSAAPGQKVTMSCSGSSSNIGSNFVSWYQQLPGTAPKVLIFDNNQRPSGIPDRFSGSKSGTSATLAITGLQPGDEAVYHCGTWDSSLTFAVFGGGTKLTVL	-1.15
